Target: T1, human CD33 (human, UniProt P20138 18-259, limits assumed)
T1 construct: Human CD33 immobilized on the BLI sensor tip or the BIAcore C1 chip; also called Siglec-3
T1 sequence (P20138 18-259 limits assumed): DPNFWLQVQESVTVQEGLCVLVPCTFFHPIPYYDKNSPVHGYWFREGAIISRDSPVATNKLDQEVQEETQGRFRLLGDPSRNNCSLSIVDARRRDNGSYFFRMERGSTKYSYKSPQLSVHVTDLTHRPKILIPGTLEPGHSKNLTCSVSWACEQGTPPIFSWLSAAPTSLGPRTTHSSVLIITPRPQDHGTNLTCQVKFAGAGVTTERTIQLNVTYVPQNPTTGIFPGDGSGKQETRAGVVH
Test: BLI (ForteBio), Fab 100 nM on immobilized CD33
pKd: −log10 of the molar value.
Metric: pKd

- AB-64.1.9 (antibody, V domains shown, Variant of AB-64.1) VH: QVQLVQSGAEVKKPGASVKISCKASGYTFTDYNLHWVRQAPGQGLEWIGFIYPSNQITGYAQKFQGRATLTVDNPTSTAYMELSSLRSEDTAVYYCARSDVDYFDYWGQGTLLTVSS VL: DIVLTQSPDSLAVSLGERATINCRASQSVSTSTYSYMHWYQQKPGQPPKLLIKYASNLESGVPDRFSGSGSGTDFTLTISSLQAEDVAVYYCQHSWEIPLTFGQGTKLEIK: 8.97
- AB-64.1.14 (antibody, V domains shown, Variant of AB-64.1) VH: QVQLVQSGAEVKKPGASVKISCKASGYTFTDYNLHWVRQAPGQGLEWIGFIYPSNVITGYAQKFQGRATLTVDQSTSTAYMELSSLRSEDTAVYYCARSDVDYFDYWGQGTLLTVSS VL: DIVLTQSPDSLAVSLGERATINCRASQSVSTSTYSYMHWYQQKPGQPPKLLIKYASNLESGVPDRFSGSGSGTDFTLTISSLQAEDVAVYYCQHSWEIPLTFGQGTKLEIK: 9.13
- AB-64.1.7 (antibody, V domains shown, Variant of AB-64.1) VH: QVQLVQSGAEVKKPGASVKISCKASGYTFTDYNLHWVRQAPGQGLEWIGFIYPSNGITGYAQKFQGRATLTVDNPTSTAYMELSSLRSEDTAVYYCARSDVDYFDYWGQGTLLTVSS VL: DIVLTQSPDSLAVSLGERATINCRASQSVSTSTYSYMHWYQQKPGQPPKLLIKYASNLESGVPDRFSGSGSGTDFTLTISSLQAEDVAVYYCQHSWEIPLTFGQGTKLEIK: 9.41
- AB-64.1.6 (antibody, V domains shown, Variant of AB-64.1) VH: QVQLVQSGAEVKKPGASVKISCKASGYTFTDYNLHWVRQAPGQGLEWIGFIYPSNGITGYAQKFQGRATLTVDNSASTAYMELSSLRSEDTAVYYCARSDVDYFDYWGQGTLLTVSS VL: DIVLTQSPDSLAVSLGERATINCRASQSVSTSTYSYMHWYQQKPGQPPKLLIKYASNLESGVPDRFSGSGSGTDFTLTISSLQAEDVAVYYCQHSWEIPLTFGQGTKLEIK: 9.08
- AB-64.1.1 (antibody, V domains shown, Variant of AB-64.1) VH: QVQLVQSGAEVKKPGASVKISCKASGYTFTDYNLHWVRQAPGQGLEWIGFIYPSNQITGYAQKFQGRATLTVDNSTSTAYMELSSLRSEDTAVYYCARSDVDYFDYWGQGTLLTVSS VL: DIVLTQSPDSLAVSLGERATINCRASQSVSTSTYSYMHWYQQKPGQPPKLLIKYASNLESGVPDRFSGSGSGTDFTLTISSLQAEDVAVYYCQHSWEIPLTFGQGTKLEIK: 9.37
